Molecular target: chimeric BTLA of humanised-BTLA mice (human extracellular region, murine transmembrane and signaling … (human; mouse, UniProt Q7TSA3 184-306, limits assumed); also: test concentration or dose not given here
Sequence (Q7TSA3 other isoform, or with tags, fused parts or gaps mutant limits assumed): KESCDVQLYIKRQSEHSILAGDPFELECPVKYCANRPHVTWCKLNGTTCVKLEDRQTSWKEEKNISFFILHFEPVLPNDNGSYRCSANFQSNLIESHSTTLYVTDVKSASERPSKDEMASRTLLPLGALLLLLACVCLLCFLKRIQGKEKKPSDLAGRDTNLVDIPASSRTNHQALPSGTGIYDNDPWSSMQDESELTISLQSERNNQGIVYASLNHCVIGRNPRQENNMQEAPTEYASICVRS
Experiment: cell-based or functional assay
MEASURED_PROPERTY: AntiCD3/CD28 (CD69+ CD4 T cells) repeat 2 (% inhibition)
Write down the numeric answer in % inhibition and omit the unit.

Prompt: Field request: AntiCD3/CD28 (CD69+ CD4 T cells) repeat 2 | item: 24H7 (antibody, IgG1, V domains shown, mIgG1) VH: QVQLQQSGAELVRPGASVTLSCKASGYTFTDYEIHWVKQTLVHGLEWIGPIDPDTGNTAYNQNLKGKAILTADKSSSTAYMELRSLTSEDSAVYYCTRGGYDSDWGFAYWGQGTLVTVSA VL: DIVMTQATPSVPVTPGESVSISCRSSKSLLHSNGNTFLFWFLQRPGQSPQLLIYRMSDLASGVPDRFSGSGSGTAFTLRISRVEAEDVGIYYCMQHLEYPFTFGSGTKLEIK
Response: 44

Prompt: What AntiCD3/CD28 (CD69+ CD4 T cells) repeat 2 value was documented for this binder, 14D4 (antibody, IgG1, V domains shown, mIgG1) VH: QVQLQQPGAELVKPRASVKLSCKASGYTFTSYWMHWVKQRPGQGLEWIGMIHPNNGIPNYNEKFKSKATLTVDKSSTTAYMQLSSLTSEDSAVYHCAREGYYGSEGYFDVWGTGTTVTVSS VL: QIVLTQSPAIMSASPGEKVTMTCSASSSISYIHWYQQKPGTSPKRWIYDTSKLASGVPARFSGSGSGTSYSLTISSMEAEDAATYYCHQRSTYPYTFGGGTKLEIK ?
Response: 52

Prompt: Looking for the measured AntiCD3/CD28 (CD69+ CD4 T cells) repeat 2 of 16H2 (antibody, IgG1, V domains shown, mIgG1) VH: EVQLQQSGPELVQPGASVKISCKASGYTFTDYYMIWVKQSHGKSLEWIGNINPNNGGTTYNQKFKGKATLTVDKSSSTAYMGLPSLTSEDSAVYYCARGGLRPLYFDYWGQGTTLTVSS VL: NIVMTQSPKSMSMSVGERVTLSCKASENVDTYVSWYQQKPEQSPKLLIYGASNRYTGVPDRFTGSGSATDFTLTISSVQAEDLADYHCGQSYSYPLTFGAGTKLELI , can you help?
Response: 60

Prompt: GET /values?readout=AntiCD3/CD28 (CD69+ CD4 T cells) repeat 2&item= 15B6 (antibody, IgG1, V domains shown) VH: QVQLQQPGAELVKPGASVKLSCKASGYTFTSYWMHWVKQRPGQGLEWIGMIHPNSGSTNYNEKFKSKATLTVDKSSSTAYMQLSSLTSEDSAVYYCARKRGGLGDYWGQGTSVTVSS VL: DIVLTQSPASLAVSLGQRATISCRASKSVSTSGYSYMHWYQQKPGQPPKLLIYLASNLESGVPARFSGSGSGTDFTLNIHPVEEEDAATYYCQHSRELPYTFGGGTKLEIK
Response: 20

Prompt: So what does the record say about AntiCD3/CD28 (CD69+ CD4 T cells) repeat 2 for 26B1 (antibody, IgG1, V domains shown, mIgG1) VH: EVQLQQSGPVLVKPGASVKMSCKASGYTFTDYYLNWVKQSHGKSLEWIGLIDPYNGGSSCNQKFKGKATLTVDKSSSTAYMDLNSLTSEDSAVYYCARGNAMDYWGQGTSVTVSS VL: DIVMTQSHKFMSTSVGDRVSITCKASQDVSTAVAWYQEKPGQSPKLLIYWASTRHTGVPDRFTGSGSGTDYILNISSVQAEDLALYYCQQHYIIPYMFGGGTKLEIK ?
Response: 30
